system: BT-474 human mammary gland ductal carcinoma cells; assay: Inhibitory response against BT-474 cells (Cell Titer-Glo); format: cell-based; details: 72 hours of culture, inhibition of cell growth
pIC50: −log10 of the molar value. Square brackets hold non-standard residues; d marks the D form. Peptide text beside a SMILES is read from it. * marks the point of attachment. Dolaproine = CO[C@@H]([C@@H]1CCCN1)[C@@H](C)C(=O)O; Dil = CC[C@H](C)[C@H](NC)[C@@H](CC(=O)O)OC; Val(3-OH) = CC(C)(O)[C@H](N)C(=O)O; Doe = c1ccc(C[C@H](N*)c2nccs2)cc1; X1 = C[C@@H](N*)[C@@H](O)c1ccccc1; NMeAib = CNC(C)(C)C(=O)O
Listed next: entries and their corresponding pIC50.

>  <Compound>
CC[C@H](C)[C@@H]([C@@H](CC(=O)N1CCC[C@H]1[C@H](OC)[C@@H](C)C(=O)N[C@@H](Cc1ccccc1)c1nccs1)OC)N(C)C(=O)[C@H](CSC)NC(=O)C(C)(C)NC [Compound 111] (H-[NMeAib]C(Me)[Dil][Dolaproine]-Doe)

>  <pIC50>
9.06

$$$$
>  <Compound>
CC[C@H](C)[C@@H]([C@@H](CC(=O)N1CCC[C@H]1[C@H](OC)[C@@H](C)C(=O)N[C@@H](Cc1ccccc1)c1nccs1)OC)N(C)C(=O)[C@@H](NC(=O)[C@H](C(C)C)N(C)C)C(C)(C)O

>  <pIC50>
11.66

$$$$
>  <Compound>
CC[C@H](C)[C@@H]([C@@H](CC(=O)N1CCC[C@H]1[C@H](OC)[C@@H](C)C(=O)N[C@H](C)[C@@H](O)c1ccccc1)OC)N(C)C(=O)[C@@H](NC(=O)[C@H](C(C)C)N(C)C)C(C)(C)O

>  <pIC50>
9.85

$$$$
>  <Compound>
CC[C@H](C)[C@@H]([C@@H](CC(=O)N1CCC[C@H]1[C@H](OC)[C@@H](C)C(=O)N[C@H](C)[C@@H](O)c1ccccc1)OC)N(C)C(=O)[C@@H](NC(=O)C(C)(C)NC)C(C)(C)O [Compound 110] (H-[NMeAib][Val(3-OH)][Dil][Dolaproine]-X1)

>  <pIC50>
8.04

$$$$
